B1: GOLPH3 (parent)
chain: FAPLLDEQYDLATKRVRQLLDLDP

- Variants of: B1
- Assay name: protein stability index of a GFP-peptide fusion (GPS, HEK-293T) (PSI 1-6); higher = more stable;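 note: lentivirally expressed fusions sorted by FACS into six bins by GFP to DsRed ratio, PSI derived from sequencing read proportions per bin multiplied by bin number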
- Run parameters: c terminus: a fixed tail appended
In this section we review reported protein stability index values for a set of variants.
Endpoint name: protein stability index

{"columns": ["Variant label", "Measured number"],
 "data": [
  ["Y9I", 2.26],
  ["R17E", 2.41],
  ["Q18L", 2.52],
  ["Q18N", 2.2],
  ["F1E", 4.59],
  ["V16R", 1.82],
  ["E7P", 2.12],
  ["E7A", 1.49],
  ["D23L", 2.01],
  ["D10W", 3.11],
  ["D6I", 1.46],
  ["R15P", 2.48],
  ["P24D", 1.87],
  ["Q18A", 2.52],
  ["D6E", 2.22],
  ["E7W", 2.56],
  ["D6F", 1.49],
  ["T13Q", 1.84],
  ["F1C", 2.5],
  ["D23V", 1.6],
  ["F1L", 3.67],
  ["R17M", 2.27],
  ["L11V", 2.21],
  ["R17F", 1.93],
  ["L19R", 1.65],
  ["L20G", 2.42],
  ["L11H", 2.73],
  ["D10H", 1.58],
  ["A2W", 1.92],
  ["L20R", 1.91],
  ["T13R", 1.57],
  ["D21A", 1.47],
  ["A12V", 1.88],
  ["E7G", 1.86],
  ["A12F", 1.74],
  ["V16W", 1.37],
  ["L20F", 1.83],
  ["P24W", 1.29],
  ["P3T", 2.88],
  ["K14S", 2],
  ["L20C", 2.27],
  ["D10S", 2.03],
  ["Q8A", 2.29],
  ["P3E", 3.18],
  ["L11Y", 2.51],
  ["Q18V", 2.99],
  ["A2G", 3.19],
  ["L20H", 1.98],
  ["L11G", 2.38],
  ["F1D", 4.39],
  ["R15N", 2.3],
  ["L11T", 2.28],
  ["L4T", 1.72]
]}
